- Test system: Erythrocyte
- ASSAY_PROCEDURE: Hemolytic activity in sheep erythrocytes assessed as cell lysis at 50 to 100 uM measured after 1 hr
- Assay type: toxicity, cell-based, Ovis aries
- MEASUREMENT_CONTEXT: dose 50-100 µM
VALUE_TYPE: Activity

OB1OCC=C1c1ccc(Br)cc1
Non-Toxic
OB1OCC=C1c1ccc2occc2c1
Non-Toxic
OB1OCC=C1c1ccc(OC(F)(F)F)cc1
Non-Toxic
OB1OCc2cc(F)ccc21
Non-Toxic
CC(C)(C)c1ccc(C2=CCOB2O)cc1
Non-Toxic
Cc1cc(F)cc(C2=CCOB2O)c1
Non-Toxic
OB1OCC=C1c1cccc(I)c1
Non-Toxic
OB1OCC=C1c1cccc(Br)c1
Non-Toxic
OB1OCC=C1c1ccc(F)cc1
Non-Toxic
OB1OCC=C1c1cccc(Cl)c1
Non-Toxic
OB1OCC=C1c1ccccc1F
Non-Toxic
CCCc1ccc(C2=CCOB2O)cc1
Non-Toxic
Cc1cccc(C2=CCOB2O)c1
Non-Toxic
OB1OCC=C1c1cccc(F)c1
Non-Toxic
OB1OCC=C1c1ccc2ccccc2c1
Non-Toxic
OB1OCC=C1c1ccc(Cl)cc1
Non-Toxic
Cc1ccc(C2=CCOB2O)cc1
Non-Toxic
